# System: A549 cells
# protocol-notes: Uptake of labeled EPNVs by A549 cells
# Format: cell-based, human
# run-parameters: 37° C.; sodium azide 50 mM, 3 and 6 hour
reported-property: effect of inhibitor on uptake of PKH26-EPNV by A549 cells

Reference set (4 entries):
| molecule | endpoint-value |
| --- | --- |
| COC(=O)Nc1nc2ccc(C(=O)c3cccs3)cc2[nH]1 [nocodazole] | greatly diminished |
| CN(C)CCCN1c2ccccc2Sc2ccc(Cl)cc21 [chlorpromazine] | greatly diminished |
| N=C(N)NC(=O)c1nc(Cl)c(N)nc1N [Amiloride] | did not affect |
| COc1ccc2c(c1)c(CC(=O)O)c(C)n2C(=O)c1ccc(Cl)cc1 [indomethacin] | did not affect |

Could you tell me which effect of inhibitor on uptake of PKH26-EPNV by A549 cells is on file for C=C1[C@@H](C)[C@H]2[C@H](Cc3ccccc3)NC(=O)[C@]23[C@H](OC(C)=O)/C=C/[C@@](C)(O)C(=O)[C@@H](C)C/C=C/[C@H]3[C@@H]1O [cytochalasin D] ? greatly diminished

FYI, the data here is from patent US11890382B2.
